# system name: Solute carrier organic anion transporter family member 1B1 (Homo sapiens)
# Sequence (Q9Y6L6 whole entry): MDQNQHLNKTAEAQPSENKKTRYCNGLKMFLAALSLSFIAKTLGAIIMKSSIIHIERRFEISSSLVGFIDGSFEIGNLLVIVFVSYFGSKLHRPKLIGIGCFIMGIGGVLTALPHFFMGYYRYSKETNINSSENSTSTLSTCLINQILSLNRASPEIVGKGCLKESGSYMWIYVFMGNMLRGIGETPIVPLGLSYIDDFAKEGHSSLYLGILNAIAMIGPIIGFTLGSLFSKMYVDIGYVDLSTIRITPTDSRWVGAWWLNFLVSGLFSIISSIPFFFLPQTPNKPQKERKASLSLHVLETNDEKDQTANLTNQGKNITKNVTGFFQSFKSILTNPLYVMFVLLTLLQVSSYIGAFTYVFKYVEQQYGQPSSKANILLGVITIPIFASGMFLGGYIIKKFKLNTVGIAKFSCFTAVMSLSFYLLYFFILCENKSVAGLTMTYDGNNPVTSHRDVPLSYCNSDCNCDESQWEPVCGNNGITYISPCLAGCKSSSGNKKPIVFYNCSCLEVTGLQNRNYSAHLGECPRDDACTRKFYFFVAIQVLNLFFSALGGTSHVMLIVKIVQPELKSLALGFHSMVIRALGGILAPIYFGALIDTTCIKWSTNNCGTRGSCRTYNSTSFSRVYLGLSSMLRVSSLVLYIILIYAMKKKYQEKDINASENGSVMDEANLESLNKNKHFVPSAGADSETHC
# details: chinese hamster, cho, 10 µM
Overview of recorded residual activity for various compounds
endpoint: residual activity (%)

| compound | data value |
| --- | --- |
| CCc1cn([C@H]2C[C@H](O)[C@@H](CO)O2)c(=O)[nH]c1=O [EDOXUDINE] | 92.48 |
| C[C@@]12C(=O)OC(=O)[C@]1(C)[C@H]1CC[C@@H]2O1 [CANTHARIDIN] | 102.5 |
| c1ccc2c(c1)sc1ccccc12 [DIBENZOTHIOPHENE] | 114.7 |
| CCC(C)C(=O)c1c(O)c(C)c2oc3c(C)c(O)c(C(=O)C(C)CC)c(O)c3c2c1O (configuration not stated) [RHODOMYRTOXIN B] | 8.078 |
| COc1cccc(C=O)c1OC | 107.3 |
| C[C@@H]1[C@H]2[C@H](O[C@@H]3O[C@H](CO)[C@@H](O)[C@H](O)[C@H]3O)OC=C(C(=O)O)[C@H]2C[C@@H]1O [LOGANIC ACID] | 49.18 |
| CC(C)C[C@H](NC(=O)[C@H](Cc1ccccc1)NC(=O)CNC(=O)CNC(=O)[C@@H](N)Cc1ccc(O)cc1)C(=O)O [ENKEPHALIN] | 84.58 |
| CC1=CC(=O)[C@H]2C(C)(C)CCC[C@]2(C)[C@@]1(O)CCc1ccoc1 | 48.25 |
| CC(CCc1ccc(O)cc1)NCCc1ccc(O)c(O)c1.Cl (configuration not stated) [DOBUTAMINE HYDROCHLORIDE] | 91.62 |
| COC(=O)CC1C(C)(C)C(OC(C)=O)[C@@H]2[C@@H](OC(C)=O)[C@]34O[C@@]2(O)[C@]1(C)C3CC[C@]1(C)C4=CC(=O)O[C@H]1c1ccoc1 (some centres not stated) [XYLOCARPUS A] | 22.54 |
| CC(=O)Oc1ccc2c(c1OC(C)=O)OC[C@]1(O)Cc3c(cc(OC(C)=O)c(OC(C)=O)c3OC(C)=O)[C@H]21 | 101.4 |
| O=C1CN(/N=C/c2ccc([N+](=O)[O-])o2)C(=O)N1 [NITROFURANTOIN] | 97.62 |
| CCCCOc1cc(C(=O)NCCN(CC)CC)c2ccccc2n1.Cl [DIBUCAINE HYDROCHLORIDE] | 103.4 |
| O=C(O)/C=C/C=C/c1ccccc1 [JUAREZIC ACID] | 102.3 |
| CC(C)NCC(O)c1cc(O)cc(O)c1 (configuration not stated) [METAPROTERENOL] | 108.3 |
| Nc1ccn([C@@H]2O[C@H](CO)[C@@H](O)[C@@H]2O)c(=O)n1 [CYTARABINE] | 78.64 |
| CC(C)OC(=O)C(C)(C)Oc1ccc(C(=O)c2ccc(Cl)cc2)cc1 [FENOFIBRATE] | 82.56 |

###

# system name: UniProtKB Q9Y6L6
# details: chinese hamster, cho, 10 µM
The following compounds are listed with their measured residual activity values.

| compound | unit abbrev | residual activity |
| --- | --- | --- |
| CC1CC[C@]2(OC1)OC1C[C@H]3[C@@H]4CC[C@H]5C[C@@H](O)CC[C@]5(C)C4=CC[C@]3(C)C1[C@@H]2C (some centres undefined) | % | 109.1 |
| Cl.c1ccc2c(CC3=NCCN3)cccc2c1 [NAPHAZOLINE HYDROCHLORIDE] | % | 100.7 |
| CC(=O)O[C@@H]1CC2C(C)(C)[C@H](O)C[C@H](O)[C@@]2(C)C2CC[C@]3(C)C(=CC(=O)O[C@@H]3c3ccoc3)[C@]21C (some centres undefined) | % | 31.1 |
| CC(=O)O[C@H]1CC[C@]2(C)C3=C(CC[C@H]2C1(C)C)[C@]1(C)CC[C@H]([C@H](C)CCC=C(C)C)[C@@]1(C)CC3 | % | 54.67 |
| CC(=O)OC(C)C[N+](C)(C)C.[Cl-] (centres undefined) [METHACHOLINE CHLORIDE] | % | 86.62 |
| CCn1cc(C(=O)O)c(=O)c2cc(F)c(N3CCNCC3)nc21 | % | 111.1 |
| O=C(O)c1nn(Cc2ccc(Cl)cc2Cl)c2ccccc12 | % | 129 |
| Cc1ccsc1/C=C/C1=NCCCN1C.O=C(O)CC(O)(CC(=O)O)C(=O)O [MORANTEL CITRATE] | % | 115.3 |
| CCC(C)C(=O)O[C@@H]1C[C@]2(C)[C@H](c3ccoc3)OC(=O)CC23OC2(C)OC34[C@H](OC(=O)C(C)C)[C@@]3(O)[C@@H](OC(=O)[C@]5(C)O[C@H]5C)[C@]5(C)C[C@@]3(O)[C@@](C)([C@H]5CC(=O)OC)C14O2 (some centres undefined) | % | -0.3887 |
| C[C@]12CCC(=O)C=C1CC[C@@H]1[C@@H]2C(=O)C[C@@]2(C)[C@H]1CC[C@]2(O)C(=O)CO | % | 76.37 |
| CCOc1ccc2ccccc2c1C(=O)N[C@@H]1C(=O)N2[C@@H]1SC(C)(C)[C@@H]2C(=O)[O-].O.[Na+] [NAFCILLIN SODIUM] | % | 74.51 |
| COc1c(CC=C(C)C)c2c(c3oc(=O)c(-c4ccc(O)cc4)c(O)c13)C=CC(C)(C)O2 | % | 13.79 |
| Cl.O=C1CC[C@@]2(O)[C@H]3Cc4ccc(O)c5c4[C@@]2(CCN3CC2CC2)[C@H]1O5 [NALTREXONE HYDROCHLORIDE] | % | 71.98 |
| CCC(C)C(=O)OC1[C@@H]2CC3=C4CC(=O)O[C@@H](c5ccoc5)[C@]4(C)CCC3[C@@](C)(C2=O)[C@@H](CC(=O)OC)C1(C)C (some centres undefined) | % | 98.52 |
